Target: T1, His-tagged CEACAM1 (human, UniProt P13688 35-428)
T1 construct: 45 kDa SPR analyte; also called CEACAM1-HIS; CEACAM1 analyte
T1 sequence: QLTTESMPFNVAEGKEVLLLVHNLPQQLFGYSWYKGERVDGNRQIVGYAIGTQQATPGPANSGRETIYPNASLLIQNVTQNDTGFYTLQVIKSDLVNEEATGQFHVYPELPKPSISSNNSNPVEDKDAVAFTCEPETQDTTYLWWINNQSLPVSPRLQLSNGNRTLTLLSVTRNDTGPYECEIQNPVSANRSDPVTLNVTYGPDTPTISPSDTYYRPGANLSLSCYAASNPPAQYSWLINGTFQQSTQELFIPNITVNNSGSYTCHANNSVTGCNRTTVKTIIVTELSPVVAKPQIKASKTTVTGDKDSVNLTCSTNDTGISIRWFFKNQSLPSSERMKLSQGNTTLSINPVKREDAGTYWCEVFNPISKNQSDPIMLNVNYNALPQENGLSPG
Test: SPR single-cycle, supernatant IgG captured
readout-name: kon (M⁻¹ s⁻¹)
Answer format: numeric, M⁻¹ s⁻¹ implied, no suffix.

Some binders with recorded kon:
Using the record for VH1/CP09F05 (antibody, IgG4, V domains shown, IgG4 (S241P), kappa) VH: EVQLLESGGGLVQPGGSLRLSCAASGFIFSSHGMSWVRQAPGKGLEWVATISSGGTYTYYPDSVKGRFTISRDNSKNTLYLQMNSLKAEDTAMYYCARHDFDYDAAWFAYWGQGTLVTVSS VL: EIVLTQSPATLSLSPGERATLSCRANSAVSYMYWYQQKPGQAPRPWIYLTSNRATGVPARFSGSGSGTDYTLTISSLEPEDFAVYYCQQNTALPFTFGQGTKLEIK , report its kon.
35000

Using the record for VH1/CP08D02 (antibody, IgG4, V domains shown, IgG4 (S241P), kappa; also called Parent VH/CP08D02) VH: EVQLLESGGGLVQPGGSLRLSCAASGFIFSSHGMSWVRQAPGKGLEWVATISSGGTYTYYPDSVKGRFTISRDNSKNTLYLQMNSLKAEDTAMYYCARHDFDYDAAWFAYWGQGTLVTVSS VL: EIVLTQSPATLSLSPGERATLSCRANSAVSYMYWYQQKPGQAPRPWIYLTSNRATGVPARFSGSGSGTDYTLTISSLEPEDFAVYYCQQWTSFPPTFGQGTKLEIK , report its kon.
430000

From here, focus on the item given below.
Using the record for CP08D11/Vκ8 S29A (antibody, IgG4, V domains shown, IgG4 (S241P), kappa) VH: EVQLLESGGGLVQPGGSLRLSCAASGYSFSAHGMSWVRQAPGKGLEWVATISSGGTYTYYPDSVKGRFTISRDNSKNTLYLQMNSLKAEDTAMYYCARHDFDYDAAWFAYWGQGTLVTVSS VL: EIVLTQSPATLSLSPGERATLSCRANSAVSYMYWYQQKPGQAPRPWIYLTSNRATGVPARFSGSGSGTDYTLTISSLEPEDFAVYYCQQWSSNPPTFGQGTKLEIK , report its kon.
86000
